experimental.system: human TASK-3 (Homo sapiens (Human))
protocol.description: Two-electrode voltage clamp analysis of human TASK-3 channels in Xenopus laevis oocytes
Assay type: cell-based
assay.conditions: 10 μM; oocytes, voltage clamp; Table 1B
measured.property: inhibition at 10 µM (%)

Worked set:
COc1cccc(-c2nc3ccccn3c2CN2CCN(C(=O)C3CCC3)CC2)c1 [drawing 125]    73.6
O=C(c1ccncc1)N1CCN(Cc2c(-c3ccc(Cl)cc3)nc3ccc(C4CC4)cn23)CC1 [drawing 124]    56.1

[A] O=C(c1ccccc1Cl)N1CCN(Cc2c(-c3ccc(Cl)cc3)nc3ccc(-c4ccccc4)cn23)CC1 [drawing 122]
[B] O=C(c1cnccn1)N1CCN(Cc2c(-c3ccc(Cl)cc3)nc3ccc(C4CC4)cn23)CC1 [drawing 126]
Q: # query: argmin of inhibition at 10 µM over A and B Mark your answer with the label of the selected entry.
Ans: A

---

experimental.system: human TASK-3 (Homo sapiens (Human))
protocol.description: Inhibition of recombinant TASK-3 in stably transfected CHO cells (voltage-sensitive dye, FLIPR)
Type: cell-based
assay.conditions: depolarization induced by 40 mM potassium chloride, Table 2A
Procedure: B-2. Inhibition of Recombinant TASK-1 and TASK-3 In Vitro The investigations on the inhibition of the recombinant TASK-1 and TASK-3 channels were carried out using stably transfected CHO cells. […] 6 (5), 305-312 (2001); Molecular Devices FLIPR Application Note: Measuring membrane potential using the FLIPR® membrane potential assay kit on Fluorometric Imaging Plate Reader (FLIPR®) systems, http://www.moleculardevices.com/reagents-supplies/assay-kits/ion-channels/flipr-membrane-potential-assay-kits]. […]
pIC50: −log10 of the molar value.
measured.property: pIC50

[1] COc1cccc(C(=O)N2CCN(Cc3c(-c4ccc(C#N)cc4)nc4ccccn34)CC2)n1 [Example 61]
[2] CC(C)c1ccccc1C(=O)N1CCN(Cc2c(-c3ccc(Cl)cc3)nc3ccccn23)CC1 [Example 34]
Q: # query: argmin of pIC50 over 1 and 2 Mark your answer with the label of the selected entry.
Ans: 1

---

experimental.system: human TASK-3 (Homo sapiens (Human), UniProt Q9NPC2)
Sequence (Q9NPC2 whole entry): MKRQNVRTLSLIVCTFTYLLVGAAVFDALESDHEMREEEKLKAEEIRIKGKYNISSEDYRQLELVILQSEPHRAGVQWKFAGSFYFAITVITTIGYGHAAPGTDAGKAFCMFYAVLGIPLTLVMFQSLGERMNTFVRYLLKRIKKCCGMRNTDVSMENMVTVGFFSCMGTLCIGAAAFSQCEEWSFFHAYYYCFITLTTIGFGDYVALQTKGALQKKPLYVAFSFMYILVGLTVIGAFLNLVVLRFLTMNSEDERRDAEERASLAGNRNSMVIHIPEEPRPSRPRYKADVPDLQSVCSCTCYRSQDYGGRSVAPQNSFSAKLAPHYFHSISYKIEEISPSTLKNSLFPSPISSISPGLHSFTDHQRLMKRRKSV
protocol.description: Inhibition of recombinant TASK-3 in stably transfected CHO cells (voltage-sensitive dye, FLIPR)
Type: cell-based
assay.conditions: depolarization induced by 40 mM potassium chloride, Table 2A
measured.property: IC50 (nM)

N#Cc1ccc(-c2nc3ccccn3c2CN2CCN(C(=O)c3ccccc3F)CC2)cc1 [Example 60]    4600
COc1cccc(C(=O)N2CCN(Cc3c(-c4ccc(Cl)cc4)nc4ccccn34)CC2)c1 [Example 19]    300
O=C(C1CCCO1)N1CCN(Cc2c(-c3ccc(Cl)cc3)nc3ccccn23)CC1 (centres unmarked) [Example 35]    790
COc1ccc(F)c(C(=O)N2CCN(Cc3c(-c4ccc(Cl)cc4)nc4ccccn34)CC2)c1 [Example 27]    120

[a] O=C(c1ccccn1)N1CCN(Cc2c(-c3ccc(Cl)cc3)nc3ccccn23)CC1 [Example 26]
[b] O=C(c1cc(F)ccc1Cl)N1CCN(Cc2c(-c3ccc(F)cc3)nc3ccccn23)CC1 [Example 51]
[c] O=C(C1CCC1)N1CCN(Cc2c(-c3ccc(Cl)cc3)nc3ccccn23)CC1 [Example 18]
Q: Place the items in sequence of falling IC50. Give your ranking as a list of the labels in the requested order.
Ans: b, a, c

[I] Cc1ccc(-c2nc3ccccn3c2CN2CCN(C(=O)C3CCCC3)CC2)cc1 [Example 56]
[II] COc1cccc(C(=O)N2CCN(Cc3c(-c4ccc(C)cc4)nc4ccccn34)CC2)n1 [Example 59]
Q: # query: argmin of IC50 over I and II Mark your answer with the label of the selected entry.
Ans: II
(II: 430 nM, I: 700 nM)

[A] O=C(c1cccc(OC(F)(F)F)n1)N1CCN(Cc2c(-c3ccc(Cl)cc3)nc3ccccn23)CC1 [Example 67]
[B] O=C(C1CCC1)N1CCN(Cc2c(-c3ccc(F)cc3)nc3ccccn23)CC1 [Example 49]
Q: Lab note: record which item had the higher IC50, A or B . Mark your answer with the label of the selected entry.
Ans: B
